Test system: Fibroblast
Assay: Multiplex assay against human fibroblast
Type: toxicity, cell-based
Details: 24 h, 1 µM, compound concentration 1 uM
readout label: Population Normal (%)

input: Could you share which Population Normal (%) value was measured for `COc1cc2ncnc(Nc3ccc(Oc4ccccc4)cc3C)c2cc1OC.Cl` ?
output: 100%

input: Suppose we examine the compound c1ccc2nc(N3CCNCC3)ccc2c1 [QUIPAZINE] ; what Population Normal (%) value has been reported?
output: 100%

input: If you can, please state the reported Population Normal (%) value of `CC(C)c1ccc(/C=N/NC(=O)c2ccc(O)cc2)cc1` .
output: 100%

input: # input compound: O=c1cccc2n1C[C@@H]1CNC[C@H]2C1 [CYTISINICLINE] ; wanted: its Population Normal (%)
output: 100%

input: Quick one: Population Normal (%) for `O=C1N=C(NCc2cccs2)S/C1=C\c1ccc2ncccc2c1` ?
output: 100%

input: I have this compound here, `O=C(Nc1ccccc1Cl)c1cnc2ccc(C3CCNCC3)cn12.O=C(O)C(=O)O` , and I need its recorded Population Normal (%).
output: 100%

input: Recorded Population Normal (%) of `Cl.Cl.N#Cc1ccc(O[C@@H]2c3ccccc3C[C@H]2N2CCC[C@@H](N)C2)c(Cl)c1` , please.
output: 100%

input: What does the record list as Population Normal (%) for C=C(C)[C@H]1CN[C@H](C(=O)O)[C@H]1CC(=O)O [KAINIC ACID] ?
output: 100%

input: Query (compound): `S=c1[nH]nc(-c2cccs2)n1-c1ccccc1` ; field requested: Population Normal (%)
output: 100%

input: // lookup Population Normal (%) for COC[C@@H](c1ccc(C(F)(F)F)cc1)N1CCN(C2(C)CCN(C(=O)c3c(C)ncnc3C)CC2)C[C@@H]1C.O=C(O)/C=C\C(=O)O [VICRIVIROC MALEATE]
output: 96%

input: # lookup: Population Normal (%) of `CSCC[C@H](NC=O)C(=O)N[C@@H](CC(C)C)C(=O)N[C@@H](Cc1ccccc1)C(=O)O`
output: 92%

input: Which Population Normal (%) value belongs to CC/C(=C(\c1ccc(O)cc1)c1ccc(OCCN(C)C)cc1)c1ccccc1 [AFIMOXIFENE] ?
output: 100%

input: Report Population Normal (%) for `Cn1cnc(-c2cnc(O[C@H]3CCN(C(=O)Cc4ccc(OC(F)(F)F)cc4)C[C@H]3F)c(C(N)=O)c2)c1` please.
output: 100%

input: Consider the compound shown here: `COc1ccc2nc3ccc(OC)cc3c(SCCCN)c2c1.Cl` What is its recorded Population Normal (%)?
output: 100%

input: Find the recorded Population Normal (%) belonging to CSc1nc(NC2CCCC2)c([N+](=O)[O-])c(NC2CCCC2)n1 [GS-39783] and report it.
output: 97%

input: Query: Population Normal (%); subject: `CCN1CCN(Cc2ccc(Nc3ncc(F)c(-c4cc(F)c5nc(C)n(C(C)C)c5c4)n3)nc2)CC1.CS(=O)(=O)O`
output: 100%

input: Tell me the measured Population Normal (%) of `CN1CCC(C(=O)c2cccc(NC(=O)c3c(F)cc(F)cc3F)n2)CC1` , please.
output: 98%

input: Population Normal (%) for `CC(C)Oc1ccc(F)c(-c2cnc(N)c(C(=O)Nc3cnccc3N3CCC[C@@H](C(=O)O)C3)n2)c1` ?
output: 100%

input: Fill in the blank: the reported Population Normal (%) of `O=C1NCc2ccc3c(-c4cccc(Cl)c4)c[nH]c3c21` is ____.
output: 100%
